Each recorded value in this set is attributed to patent US20170326246A1.

Reported EC50 (antiviral activity, TZM-bl cells, luciferase) values are given for each entry in this list.
# target.system: gp120 of viral strain VI1888 (CRF01) (HIV, strain VI1888 (CRF01))
# assay.summary: cell-based or functional assay
[ ]: non-standard residue; d: D form. Bip = N[C@@H](Cc1ccc(-c2ccccc2)cc1)C(=O)O; Tpa = thiopropionic acid

[ask] What value of EC50 (antiviral activity, TZM-bl cells, luciferase) has been recorded for this entry: M48U1-PS1 (not fully specified; N-terminal gamma-aminobutyric acid (gammaAbu) acylated with 3-thiopropionyl (from SATP); all six Tyr are sulfotyrosine (YSO3); N-terminal Tpa; D-proline at position 21; U1 (4-cyclohexylmethoxy-L-phenylalanine) at position 23; C-terminal amide; Lys11 N-epsilon carries the PEO2-maleimide linker bound to the thiol of the PS1 chain) peptide 1: NLHFCQLRCKSLGLLGRCAPTFCACV peptide 2: SYDYSYDYSYDYS
[reply] 1.07 µM

[ask] What value of EC50 (antiviral activity, TZM-bl cells, luciferase) has been recorded for this entry: mCD4.2-PS1 (not fully specified; N-terminal gamma-aminobutyric acid (gammaAbu) acylated with 3-thiopropionyl (from SATP); all six Tyr are sulfotyrosine (YSO3); N-terminal Tpa; D-proline at position 21; U1 (4-cyclohexylmethoxy-L-phenylalanine) at position 23; C-terminal amide; Lys5 N-epsilon carries the PEO2-maleimide linker bound to the thiol of the PS1 chain) peptide 1: NLHKCQLRCSSLGLLGRCAPTFCACV peptide 2: SYDYSYDYSYDYS
[reply] 1.06 µM

[ask] What value of EC50 (antiviral activity, TZM-bl cells, luciferase) has been recorded for this entry: Tpa-NLHKCQLRCSSLGLLGRCAGS[Bip]CACV-NH2 (disulfide (positions not given here); also: three disulphide bridges, pairing not given here) [mCD4.1]
[reply] > 1 µM
